Where do these numbers come from? They come from patent EP1077966B1.

# TARGET_OR_SYSTEM: Human recombinant PTP1B (Homo sapiens)
# EXPERIMENTAL_PROTOCOL: Inhibition of tri-phosphorylated insulin receptor dodecaphosphopeptide dephosphorylation by hPTP1B (malachite green-ammonium molybdate phosphate detection)
# MEASUREMENT_CONDITIONS: substrate phosphotyrosyl dodecapeptide […] (insulin receptor 1142-1153), 37°C, 30 min, pH 7.4
MEASUREMENT_KIND: pIC50
Note: pIC50 values are expressed as the negative base-10 logarithm of concentration in M.

Worked cases, answers included:
O=C(O)c1ccc(S(=O)(=O)Oc2ccc(-c3ccc(-c4c(Cc5ccccc5)oc5ccccc45)cc3)cc2)cc1O [Example 1]; 7.41
Cc1cc(-c2ccc(-c3c(Cc4ccccc4)oc4ccccc34)cc2)cc(C)c1OS(=O)(=O)c1ccc(C(=O)O)c(O)c1 [Example 6]; 7.47
O=C(O)c1ccc(S(=O)(=O)Oc2c(Br)cc(-c3ccc(-c4c(Cc5ccccc5)sc5ccccc45)cc3)cc2Br)cc1O [Example 13]; 7.52

Summary line: O=C(O)c1ccc(S(=O)(=O)Oc2ccc(-c3ccc(-c4c(Cc5ccccc5)oc5ccccc45)cc3)cc2[N+](=O)[O-])cc1O [Example 7] , Human recombinant PTP1B (Homo sapiens), reported pIC50 = 7.54

Summary line: O=C(O)c1ccc(S(=O)(=O)Oc2ccc(-c3ccc(-c4c(C(=O)c5ccccc5)oc5ccccc45)cc3)cc2C2CCCC2)cc1O [Example 9] , Human recombinant PTP1B (Homo sapiens), reported pIC50 = 7.40

Summary line: O=C(O)c1ccc(S(=O)(=O)Oc2ccc(-c3ccc(-c4c(Cc5ccccc5)sc5ccccc45)cc3)cc2Br)cc1O [Example 12] , Human recombinant PTP1B (Homo sapiens), reported pIC50 = 7.62

Summary line: O=C(O)c1ccc(S(=O)(=O)Oc2ccc(-c3ccc(-c4coc5ccccc45)cc3)cc2)cc1O [Example 5] , Human recombinant PTP1B (Homo sapiens), reported pIC50 = 6.45

Summary line: O=C(O)c1ccc(S(=O)(=O)Oc2ccc(-c3ccc(-c4c(Cc5ccccc5)oc5ccccc45)cc3)cc2)cc1 [Example 3] , Human recombinant PTP1B (Homo sapiens), reported pIC50 = 7.12

----------
Recorded measurements of IC50, one per entry
# TARGET_OR_SYSTEM: Human recombinant PTP1B (Homo sapiens, UniProt P18031)
# Sequence (P18031 whole entry): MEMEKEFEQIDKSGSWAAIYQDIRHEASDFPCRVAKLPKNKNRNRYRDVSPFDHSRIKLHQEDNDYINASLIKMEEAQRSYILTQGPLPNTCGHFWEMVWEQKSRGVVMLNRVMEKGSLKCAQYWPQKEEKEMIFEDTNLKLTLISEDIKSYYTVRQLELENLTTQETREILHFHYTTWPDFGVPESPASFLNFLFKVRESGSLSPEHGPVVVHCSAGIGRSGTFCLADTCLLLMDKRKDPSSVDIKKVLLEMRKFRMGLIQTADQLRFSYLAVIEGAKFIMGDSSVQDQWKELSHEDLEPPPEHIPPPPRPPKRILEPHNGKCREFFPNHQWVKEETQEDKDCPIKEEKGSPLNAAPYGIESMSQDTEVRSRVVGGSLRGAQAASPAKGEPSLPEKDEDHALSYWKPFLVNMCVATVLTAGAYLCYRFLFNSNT
# EXPERIMENTAL_PROTOCOL: Inhibition of tri-phosphorylated insulin receptor dodecaphosphopeptide dephosphorylation by hPTP1B (malachite green-ammonium molybdate phosphate detection)
# MEASUREMENT_CONDITIONS: substrate phosphotyrosyl dodecapeptide […] (insulin receptor 1142-1153), 37°C, 30 min, pH 7.4
Your answer is read as nM, so omit the unit and give the number.

Worked cases, answers included:
O=C(O)c1cccc(S(=O)(=O)Oc2ccc(-c3ccc(-c4c(Cc5ccccc5)oc5ccccc45)cc3)cc2)c1; 106
Cc1sc(Cc2ccccc2)c(-c2ccc(-c3ccc(OS(=O)(=O)c4ccc(C(=O)O)c(O)c4)cc3)cc2)c1C; 32
O=C(O)c1cc(S(=O)(=O)Oc2ccc(-c3ccc(-c4c(Cc5ccccc5)oc5ccccc45)cc3)cc2)ccc1O; 26

Summary line: O=C(O)c1ccc(S(=O)(=O)Oc2ccc(-c3ccc(-c4c(C(=O)c5ccccc5)oc5ccccc45)cc3)cc2[N+](=O)[O-])cc1O , Human recombinant PTP1B (Homo sapiens, UniProt P18031), reported IC50 = 178

Summary line: O=C(O)c1ccc(S(=O)(=O)Oc2ccc(-c3ccc(-c4c(Cc5ccccc5)sc5ccccc45)cc3)cc2)cc1O , Human recombinant PTP1B (Homo sapiens, UniProt P18031), reported IC50 = 28
